Recorded values, source the supplement of paper PMC11061612.

test system: EW-1 (Ewing's Sarcoma); experiment: Bliss excess, mean over the matrix (fraction); higher = more synergy;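 also: after 72 h of two-drug dosing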
value kind: Bliss excess
Numbers only.

- CC(=O)c1c(C)c2cnc(Nc3ccc(N4CCNCC4)cn3)nc2n(C2CCCC2)c1=O [Palbociclib] + CC1(C)CCC(CN2CCN(c3ccc(C(=O)NS(=O)(=O)c4ccc(NCC5CCOCC5)c([N+](=O)[O-])c4)c(Oc4cnc5[nH]ccc5c4)c3)CC2)=C(c2ccc(Cl)cc2)C1 [Venetoclax] (first compound max 10 µM, 7x7, partner max 1 µM): 0.0441

Please go through the list and note Bliss excess for each compound.
1. CC(=O)c1c(C)c2cnc(Nc3ccc(N4CCNCC4)cn3)nc2n(C2CCCC2)c1=O [Palbociclib] + CN(CC[C@H](CSC1=CC=CC=C1)NC2=C(C=C(C=C2)S(=O)(=O)NC(=O)C3=CC=C(C=C3)N4CCC(CC4)[C@H](C5=CC=CC=C5C6=CC=C(C=C6)Cl)O)S(=O)(=O)C(F)(F)F)CCO [AZD4320] (first compound max 10 µM, 7x7, partner max 1 µM)
2. C=CCn1c(=O)c2cnc(Nc3ccc(N4CCN(C)CC4)cc3)nc2n1-c1cccc(C(C)(C)O)n1 [AZD1775] + C1CN(CCC1(C(=O)N[C@@H](CCO)C2=CC=C(C=C2)Cl)N)C3=NC=NC4=C3C=CN4 [Capivasertib] (first compound max 3 µM, partner max 3 µM)
3. Cn1cnc2c(F)c(Nc3ccc(Br)cc3Cl)c(C(=O)NOCCO)cc21 [Selumetinib] + CCN(CCO)CCCOc1ccc2c(Nc3cc(CC(=O)Nc4cccc(F)c4)[nH]n3)ncnc2c1 [AZD2811] (first compound max 10 µM, 7x7, partner max 1 µM)
4. COc1cccc(OCCCN)c1-c1cc(Nc2cnc(C#N)cn2)n[nH]1 [Prexasertib] + C[C@@H]1COCCN1C2=NC(=NC(=C2)C3(CC3)[S@](=N)(=O)C)C4=C5C=CNC5=NC=C4 [AZD6738] (first compound max 1 µM, 7x7, partner max 10 µM)
5. CC1(C)CCC(CN2CCN(c3ccc(C(=O)NS(=O)(=O)c4ccc(NCC5CCOCC5)c([N+](=O)[O-])c4)c(Oc4cnc5[nH]ccc5c4)c3)CC2)=C(c2ccc(Cl)cc2)C1 [Venetoclax] + C1CN(CCC1(C(=O)N[C@@H](CCO)C2=CC=C(C=C2)Cl)N)C3=NC=NC4=C3C=CN4 [Capivasertib] (first compound max 1 µM, 7x7, partner max 3 µM)

# output
-0.0009
0.0379
0.0332
-0.0158
-0.0019

# input What Bliss excess appears in the records for this compound with EW-1 (Ewing's Sarcoma)? Cc1cc2ncnn2cc1Nc1ncc2c(n1)n(C1CCOCC1)c(=O)n2C [AZD7648] + O=C(c1cc(Cc2n[nH]c(=O)c3ccccc23)ccc1F)N1CCN(C(=O)C2CC2)CC1 [Olaparib] (first compound max 10 µM, 7x7, partner max 10 µM)
# output -0.0021
